system: VDR homodimer (NR concentration 270 nM); assay: PBM binding z-score (relative to random genomic background probes); higher = stronger binding; sequences stand for … in GC…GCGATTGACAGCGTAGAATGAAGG
Quick rule: PBM binding z-score of at least 0.2 means Condition met, below that means Condition not met.

primary_sequence | answer_label
CCTGCCAGGTCATGGTCAGCTAATCTACAGTATG | Condition met
TAGCCTAGGTCATGGGCCAGCATACCACGCGAAC | Condition met
CCTACTGGGCCAAAAAGGTCATCGATGCCGATAA | Condition met
CCTAGCAGGCCAGAGTCACTCAAGCATTTCGCTT | Condition not met
AGAATGAGGTTACCAAAGACCAGGGAAACGCTTG | Condition met
GCTAGCAGGCCATTAGGGTCACTCAATGACGGGC | Condition met
ACTATTAGTTGAGGCGAGGGCAACCGATAGGTTG | Condition met
ATCTCTAGGTAAGACTCATTTCAGTGAAGAACGC | Condition met
CTACCAAGGTGAACAAGGTCGTTGAATACTATTC | Condition met
CCATACGGGTCAAGGTTATAGCACGGGTGGTACG | Condition met
ACAGACAGGTGAGTAAAGGTAACTCAGCTGGACG | Condition not met
TCATATAGGTAAACAGGTGAAAGACCGTAAGTTA | Condition met
CTCGAAAGGACGGTTGAGGTGAGTATACGGATAA | Condition not met
CGTCCAAGGTCAGAGAGGTCAGGGAATGCCGAGT | Condition met
GCTAGTTGGTCAGTAAAACGTCACACACCGGTCG | Condition not met
AGTCAACGTTCATCTAGGTAACGTAAGATATGCT | Condition not met
TTATATAGGTAAAGGTGAAAGTCGAACGATATGA | Condition not met
CCGAGTCGGTTATGGGGCATTCAGGCAACGGTGA | Condition not met
ATCGAAAGGTAGAAGGTGAGTATACCCACCCGAA | Condition not met
CCTGCTAGGTCAATGGTCAGCAAAAGCAGCTCGC | Condition met
GGCACGAGGGCAAAGTTGATAGCATCTGTCGACG | Condition met
TCTTGTAGATCAAAGGTTAAGGAAGCCGAAGCCT | Condition not met
AGTCAAAGTTCAGGACGAGGTAACGTAGAGCACG | Condition met
CCTAGCACGCCAATCTGGGTCACTCAAGGCTTGA | Condition met
CGTACAAGGTCAGAGAGGTCAGTGAATGCCGAGT | Condition met

====

system: RXRa DBDmut IVT, anti-RXR (DBD mutation: RXRa K156A/R161A, NR concentration 90 nM); assay: PBM binding z-score (relative to random genomic background probes); higher = stronger binding; sequences stand for … in GC…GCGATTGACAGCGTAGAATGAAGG
Quick rule: PBM binding z-score of at least 0.2 means class 1, below that means class 0.

primary_sequence | answer_label
GCTAGCAGGCCATTTGGGTAACTCAATGACGGGC | class 0
CCTATTAGTTGACCATAAGGGCAACCGAAGCTCG | class 1
GCTCGGAGGACAAGGTCAGAGGTTTGTCCGTAGA | class 1
AATACAGGGTCACTATGCCAGAGTAGGTACGAAT | class 1
AGAACGAGGGCACGCAGAGTTGATAGCAGAGTAG | class 1
CGAACGAGGGCATGAGTCGATAGCAAATGCCGAT | class 1
ATCTCTAGGTAAGACTCAGTTCAGTCAAGAACGC | class 1
AGCACGAGGGCACGCTGAGTTGATAGCAGAGTAG | class 1
TCTGCTAGGTCAGTTGTTCAGCTAACGAGCTGCC | class 1
GAACCAAGGTGAATAGGTCGTTGATGAGTAGGCG | class 0
ATATGTCGGTTATCGGGTCATTCAGTTTGCGCAT | class 1
GCTAGTTGCTCAGTAAAAGGTCACACACCGGTCG | class 1
CTCGAAAGGTCCGTTGAGGTGAGTATACGGATAA | class 0
CCTTACGGGTCAAGGATATAGCACGGGTGGTACG | class 1
TGTCAAAGTTCAAAGGGAACGTAAGTATCCACAC | class 1
TCTTGTAGATCAAAGGTTAGGAAAGCCGAAGCCT | class 1
GCTGCTAGGTCAACCGATGGTCAGCTAAAGCTCG | class 1
TCATATAGGTAAATGCTAGATGAAAGTCCGATCT | class 1
ACAGACAGTTGATGAAGGTAACTCAGGCTATCAT | class 1
ACTAGCAGGCCAAGTTTGCGTCACTCAAACAAAG | class 0
CCTAGTTGGTCAGCAGGTCACACACCGGATATGA | class 1
ACTAGCAGGCCAAGTTTGGGTCACTCTAACAAAG | class 0
TTACCAAGGTGAAAGGGCGTTGATGCACGCCTTG | class 0
TCTCGGAGGACACGACGGTCAGAGCTTTCCAGAG | class 0
ACAGACAGGTGAGTGAAGGTATCTCAGCTGGACG | class 0
AATCAAAGTTCATCTAGGTAACGTAAGATATGCT | class 1
TGAGTGAGGTTAAAGATCAGGGAACGTGGCGTCG | class 1
TCGAGTAGGTTAGTCGGGGCATTCAACCAACATA | class 1
TCTAGCAGGCCAGAGGGTCGCTCAAGAGGTACGG | class 0
TTACCAAGGTGAAAGGTGGTTGATGCACGCCTTG | class 0
GCTAGCAGGCCGTTTGGGTCACTCAATGACGGGC | class 0
CAAACTAGGTCAAAGGTCCAAGTCGAGCCAACCA | class 1
GCGACTGGGGCATCAGCAGGTTACCATAACTTAA | class 0
TCTCGGAGGACACGAAAGTTCAGAGCTCGACATC | class 1
TGTCAAAGTTCAAAGGTAACGTTAGTATCCACAC | class 1
GATACAGGGTCAGCTAGAGGCCAAAGTATGGAAA | class 1

====

test system: RXRa DBDmut IVT, anti-RXR (DBD mutation: RXRa K156A/R161A, NR concentration 90 nM); experiment: PBM binding z-score (relative to random genomic background probes); higher = stronger binding; sequences stand for … in GC…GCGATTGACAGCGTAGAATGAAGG
recorded_metric: PBM binding z-score

primary_sequence | reported_measurement
TGAATGAGGTTATAGATCAGGGAACGTGGCGTCG | 0.491
CCTCGGAGGACAACAGGAGGTCCGAGCTGCCAGA | -0.16
CTACCAAAGTGAACAAGGTCGTTGATTACTATTC | 1.69
TAGCCTAGGTCAAATCGGGCCAGTATACGCTATA | 0.997
TCGAGTAGGTTACCAATGGGGCATGCAGCTTTCT | 0.239
TCTTATAGGTAAAGGTGAAAGTCGAACGATATGA | 1.1
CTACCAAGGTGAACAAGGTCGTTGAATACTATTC | 1.24
ATCGAAAGGTCGAAGGTGAGTATCCCCACCCGAA | 0.658
ATCGAAAGGTCGACGAGGTAAGTATACACCGTTT | 1.2
TCTATTTGGTCAAAGGTCACACACTCGAAATGCG | 2.49
GCTAGTTGGTCAGTAAAAGGTCGCACACCGGTCG | 0.145
GCGACTGGGGCAAAGCATGTTACCATAAGGTTGG | 0.0488
CGAACGAGAGCATGAGTTGATAGCAAATGCCGAT | 0.193
CGTTACGGGTCACGAGGTTATAGCACGACGAGCG | 2.01
CTTACTGGGCCACGAAAGGTCATTGATTCAGTGA | 1.19
GATACAGGGTCAGCTAGAGGCCAGGGTATGGAAA | 0.978

====

test system: RARg:RXRa (NR concentration 270 nM, RXRa partner concentration 90 nM); test: PBM binding z-score (relative to random genomic background probes); higher = stronger binding; sequences stand for … in GC…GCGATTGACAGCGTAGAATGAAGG
Quick rule: PBM binding z-score of at least 3 means Fulfilled, below that means Not fulfilled.

primary_sequence | tested_target | answer_label
GCTGCTAGGTCAGGTTGGTCAGCAAACGGGTACG | RARg:RXRa (NR concentration 270 nM, RXRa partner concentration 90 nM) | Not fulfilled
TCATATAGGTAAATGCTAGGTGAAAGCCCGATCT | RARg:RXRa (NR concentration 270 nM, RXRa partner concentration 90 nM) | Not fulfilled
ACTCGGAGGACAAAGGTCAGCGCTACGCCAGTGA | RARg:RXRa (NR concentration 270 nM, RXRa partner concentration 90 nM) | Fulfilled
CCGGCTAGGTCAATGGTCAGCTAAAGCAGCTCGC | RARg:RXRa (NR concentration 270 nM, RXRa partner concentration 90 nM) | Fulfilled
CCAGATAGGTGAAAGGTAACTCAGTCTGGTACGC | RARg:RXRa (NR concentration 270 nM, RXRa partner concentration 90 nM) | Not fulfilled
TCAGACAGGTGAAGGTGACTCAGGTACGCAGTCG | RARg:RXRa (NR concentration 270 nM, RXRa partner concentration 90 nM) | Not fulfilled
ATATGTAGGTTATCGGCTCATTCAGTTTGCGCAT | RARg:RXRa (NR concentration 270 nM, RXRa partner concentration 90 nM) | Not fulfilled
